- System: Liver
- ASSAY REMARKS: Metabolic stability of the compound in mouse liver microsomes assessed as metabolic rate at 1 uM after 30 mins by LC-MS-MS analysis
- Type: ADME, Microsome
- ASSAY SETUP: 0.5 h
VALUE TYPE: Drug metabolism (nmol/min/mg)

Worked set:
Ask: Given O=C(O)c1cc(-c2ccc(CC(C(=O)c3ccc(F)c(F)c3)c3ccc(F)cc3)cc2)no1 (stereo not given) , state its recorded Drug metabolism.
Reply: 0

Ask: Given COc1ccc(-c2noc(C(Cc3ccc(-c4cc(C(=O)O)on4)cc3)c3ccc(F)cc3)n2)cc1 (stereo not given) , state its recorded Drug metabolism.
Reply: 0

Ask: Given O=C(O)c1cc(-c2ccc(CC(C(=O)c3ccc(Cl)cc3)c3ccc(F)c(F)c3)cc2)no1 (stereo not given) , state its recorded Drug metabolism.
Reply: 0

Ask: Given O=C(O)c1csc(-c2ccc(CC(c3ccc(F)cc3)c3nc(-c4cccc(F)c4)no3)cc2)n1 (stereo not given) , state its recorded Drug metabolism.
Reply: 0

Ask: Given COc1ccc(C(Cc2ccc(-c3nc(C(=O)O)cs3)cc2)c2nc(-c3cccc(F)c3)no2)cc1 (stereo not given) , state its recorded Drug metabolism.
Reply: 0

(a) O=C(O)c1csc(-c2ccc(CC(C(=O)c3ccccc3)c3ccccc3)cc2)n1 (stereo not given)
(b) COc1ccc(C(Cc2ccc(-c3cc(C(=O)O)on3)cc2)c2nc(-c3ccc(Cl)cc3)no2)cc1 (stereo not given)
(c) O=C(O)c1cc(-c2ccc(CC(C(=O)c3ccc(F)cc3)c3ccc(F)cc3)cc2)no1 (stereo not given)
Ask: Provide the items ranked by increasing Drug metabolism. In your reply, arrange the labels in the requested order.
Reply: b, c, a

(A) O=C(O)c1cc(-c2ccc(CC(c3ccccc3)c3nc(-c4ccccc4)no3)cc2)no1 (stereo not given)
(B) O=C(O)c1cc(-c2ccc(CC(C(=O)c3ccccc3)c3ccccc3)cc2)no1 (stereo not given)
Ask: Which has the smaller recorded Drug metabolism, A or B ? Write down the label of the entry you select.
Reply: A
(A: 0.04 nmol/min/mg, B: 0.06 nmol/min/mg)
